- Tested on: Mus musculus
- protocol.details: Antidepressant activity in Swiss albino mouse assessed as mean immobility time measured during last 4 mins of single 6 mins test session at 20 mg/kg, po by forced swim test (reference value: 75.33 +/- 3.35 secs)
- Assay type: functional
Listing: Time of selected compounds
Entry rule: numbers only, all in s.

// solved cases for Time follow
compound | result
COc1cc(/C=C/C(=O)N2CCCC(O)C2)cc2c1OCO2 (stereo not given) | 35.4
COc1cc(/C=C/C(=O)N2CCCCC2)cc2c1OCO2 | 32.15
CN(C)CCCN1c2ccccc2CCc2ccccc21 | 32.17
COc1cc(/C=C/C(=O)N2CCNCC2)cc2c1OCO2 | 71

Now examine the next entry.
In: Any idea what its Time is? The compound is COc1cc(/C=C/C(=O)N2CCC(O)CC2)cc2c1OCO2
Out: 30.8
